- run-description: yeast display, Sf9 membrane polyspecificity reagent, FACS + sequencing; frameworks hold sequencing errors
assay-readout: polyreactivity (PSR sort gate)

Known results for sequences:
sequence_chain=QVQLVESGGGLVQAGGSLRLSCAASGSTIGFYTMGWYRQAPGKERELVATISYSGGDTYYADSVKGRFTISRDNAKNTVYLQMNSLKPEDTAVYYCAADLGDYVTTYSWLDSWGQGTQVTVSS endpoint_result="low polyreactivity"
sequence_chain=QVQLVESGGGLVQAGGSLRLSCAASGRTFIVNTMGWYRQAPGKERELVAAITARGGRTYYADSVKGRFTISRDNAKNTVYLQMNSLIPEDTAVYYCNASTPPREAERYYWGQGTQVTVSS endpoint_result="low polyreactivity"
sequence_chain=QVQLVESGGGLVQAGGSLRLSCAASGRIFSYTARGWSRQAPGKERELVAAISGSTGNTYYADSVKGRFTISRDNAKTTLYLQMNSLKPEDTAVYYCNKLGYKYDYWGQGTQVTVSS endpoint_result="high polyreactivity"
sequence_chain=QVQLVESGGGLVQAGGSLRLSCAASGGTFLAYAMGWYRQAPGKERELVAAITRRGTRTYYADSVKGRFTISRDNANNTVYLQMNSLKPEDTAVYYCAVSGGFYWGQGTQVTVSS endpoint_result="high polyreactivity"
sequence_chain=QVQLVESGGGLVQAGGSLRLSCAASGRIFSRYAMVWYRQAPGKERELVAAINKSGGSTYYADSVKGRFTISRDNAKNTVYLQMNSLKPEDTAVYYCNAVYYWYKGDYWGQGTQVTVSS endpoint_result="high polyreactivity"

Challenge: If you can, please state the reported polyreactivity (PSR sort gate) value of QVQLVESGGGLVQAGGSLRLSCAASGNIFYLYAMGWYRQAPGKEREFSTSYADSVKGRFTISRDNAKNTVYLQMNSLKPEDTAVYYCAAYKSRGPYYYLFDYWGQGTQVTVSS .
Response given: low polyreactivity

Challenge: How about QVQLVESGGGLVQAGGSLRLSCAASGRIFNWYRMGWYRQAPGKERELVAAISRGGGRTYYADSVKGRFTISRDNAKNTVYLQMNSLKPEDTAVYYCNAVDASHAGPVGGAFRYDYWGQGTQVTVSS ?
Response given: high polyreactivity

Challenge: How about QVQLVESGGGLVQAGGSLRVSCAASGRTFKKYTMGLYRQAAGKERELVPVITSGGSTYYADSVKGRFTISRDNAKNTVYLQMNSLKPEDTAVYYWAADLYYNSYGRYGRYYYWGQGTQVTVSS ?
Response given: high polyreactivity

Challenge: How about QVQLVESGGGLVQAGGSLRLSCAASGSTFVSNGMGWYRQAPGKERELVAAITRGGSTKYADSVKGRFTISRDNAKNTVYLQMNSLKPEDTAVYYCAKRLYTRPGWYDYWGQGTQVTVSS ?
Response given: high polyreactivity

Challenge: How about KVQLVESGGGLVQAGGSLRLSCAASGSISANYAMGWYRQAPGKERELVAAISRRGASTYYADSVKGRFTISRDNAKNTVYLQMNSLKPEDTAVYYCNAKKYHVPGVDYWGQGTQVTVSS ?
Response given: high polyreactivity

Challenge: How about QVQLVESGGGLVQAGGSLRLSCAASGRTFTYYAMGWYRQAPGKERELVADINRSGGDTYYADSVKGRFTISRDNAKNTVYLQMNSLKPEDTAVYYCAADDWGAQHRYDYWGQGTQVTVSS ?
Response given: low polyreactivity

Challenge: How about QVQLVESGGGLVQAGGSLRLSCAASGRIFGVYVMGWYRQAPGKEREFVAAITWSGGRTYYADSVKGRFTISRDNAKNTVYLQMNSLKPEDTAVYYCAARRRYEYDYWGQGTQVTVSS ?
Response given: high polyreactivity

Challenge: How about QVQLVESGGGLVQAGGSLRLSCAASGRTLYWYAMGWYRQAPGKEREFVAAITWRGGSTSYADSVKGRFTISRDNAKNTVYLQMNSLKPEDTAVYYCAASSFRSYYSGKYDYWGQGTQVTVSS ?
Response given: high polyreactivity

Challenge: How about QVQLVESGGGLVQAGGSLRISCAASGFTYRKNAMGWDRQAPGKERELVAAITQSSGRTYYADTVKGRFTISRDNAKNTVYLQMNSLKPEDTAVYYCAARGVWPEYDYWGQGTQVNVSS ?
Response given: low polyreactivity

Challenge: How about QVQLVESGGGLVQAGGSLRLSCAASGSIFLKNAMGWYRQAPGKERELVAAITPGGSTYYADSVKGRFTISRDNAKNTVYFQMNSLKPEDSAVYHCAARPGGGKYRGYYYWGQGTQVTVSS ?
Response given: high polyreactivity

Challenge: How about QVQLVESGGGLVQAGGSLRLSCAASGFIFPQYAKGWYRQAPGKERELVAAISTGGGSTYYADSVKGRFTISRDNAKNTVYLQMNSLKPEDTAVYYCNARPKYDSGHYYWGQGTQVTVSS ?
Response given: high polyreactivity

Challenge: How about QVQLVESGGGLVQAGGSLRLSCAASGSIFPYYAMGWYRQAPGKERELVATITYRGGSTNYADSVKGRFTISRDNAKNTVYLQMNSLNPEDTAVYYCAAYGYVLASPYPYSFVKLGYWGQGTQVTVSS ?
Response given: low polyreactivity

Challenge: How about QVQLVESGGGLVQAGGRLRLSCAASGIIFVVNDMGWYRQAPGKEWELVADISDSGGSTNYADSVKGRFTISRDKAKNTVYLQMNSLKPEDTAVYYCAADSADPTEYDYWGQGTQVTVSS ?
Response given: low polyreactivity

Challenge: How about QVQLVESGGGLVQAGGSLRLSCADSGFIFGYYAMGWYRQAPGKERELVAAINKNGGSTYYADSVKGRFTISRDNAKNTVYLQMNSLKPEDTAVYYCAARARGYAWTFDYWGQGTQVTVSS ?
Response given: high polyreactivity

Challenge: How about QVQLVESAGGLVQAGGSLRLSCAASGSTLYKYAMGWYRQAPGKETEMVATLTRTDSTNYADSVKGRFTISRDNAKNTVYIQMNSLKPEDTAVYYCAARRVYYNGYYVNVGSFYYWGQGTQVTVSS ?
Response given: low polyreactivity

Challenge: How about QVQLVESGGGLVQAGGSLRLSCAASGSIFGYNAMGWYRQAPGKERELVADISSGDSTNYADSVKGRFTISRDNAKNTVYLQMNSLKPEDTAVYYCAADFTYQGSSANDYWGQGTQVTVSS ?
Response given: low polyreactivity

###

- run-description: yeast display, Sf9 membrane polyspecificity reagent, FACS + sequencing; frameworks hold sequencing errors
assay-readout: polyreactivity (PSR sort gate)

Known results for sequences:
sequence_chain=QVQLVESGGGLVQAGGSLRLIFAASGRTFVLNAMRWYRQAPGKEREFVAAISWGGVRTYYADSVKGRFTISRDNAKNTVYLQMNSLKPEDTAVYYCATCGSRYRRYDYWGQGTQVTVSS assay_readout="polyreactivity (PSR sort gate)" endpoint_result="high polyreactivity"
sequence_chain=QVQLVESGGGLVQAGGSLRLSCAASGRTFIWYVMGWYRQAPGKERELVATISYGGITYYADSVKRRFTISRDNAKNTVYLQMNSLKPEDTAVYYCAAYKYTHKPHGDYWGQGTQVTVSS assay_readout="polyreactivity (PSR sort gate)" endpoint_result="high polyreactivity"
sequence_chain=QVQLVESGGGLVQAGGSLRLSCAASGSIFSNNAMGWYRQAPGKERELVAAITRSGGNTYYADSVKGRFTISRDNAKNTVYLQMNSLKPEDTAVYYCNAVHLRKMYYWGQGTQVTVSS assay_readout="polyreactivity (PSR sort gate)" endpoint_result="high polyreactivity"
sequence_chain=QVQLVESGGGLVQAGGSLRLSCAASGRIFVNYAMGWYRQEPGKERELVAAITSDGSTSYADSVKGRFTISRDTAKNTVYLQMNSLKPDDPAVYYCAKDFFEHSPVSHTYSSSKYDYWGEGTQVTVSS assay_readout="polyreactivity (PSR sort gate)" endpoint_result="low polyreactivity"
sequence_chain=QDQLVESGGGLVQAGGSLRLSCAASGSIFSVYVMGWYRQAPGKERELVATISSGGGTYYADSVKGRFTISRDNAKNTVYLQMNSLKPEDTAVYYCNADWDDWKGDYWGQGTQVTVSS assay_readout="polyreactivity (PSR sort gate)" endpoint_result="low polyreactivity"
sequence_chain=QVQLVESGAGLVQAGVSLRLSCAASGRTFPYYAMGWYRQAPGKERELVARITYSGGSTYADSVKGRFPISRDNAKNTVYLQMNSLKPEDTAVYFCAAQYYAYLLDGYHRYDYWGLGTQVTVSS assay_readout="polyreactivity (PSR sort gate)" endpoint_result="high polyreactivity"
sequence_chain=QVQLVESGGGLVQAGGSLRLSCAASGFIFVYYVMGWYRQAPGKERELVAAITQSGGSTYYADSVKGRFTISRDNAKYTVYLQMNSLKPEDTAVYYCAAYRRTTGGGYDYWGQGTQVTVSS assay_readout="polyreactivity (PSR sort gate)" endpoint_result="high polyreactivity"
sequence_chain=QVQLVESGGGLVQAGGSLRLSCAASGFIFEPYAMGWYRQAPGKERELVAAISSGGSTYADSVKGRFTISRDNAKNTVYLQMNSLKPEDTAVYYCAVRGYWGQGTQVTVSS assay_readout="polyreactivity (PSR sort gate)" endpoint_result="low polyreactivity"

Challenge: If you can, please state the reported polyreactivity (PSR sort gate) value of QVQLVESGGCLVQAGGSLRLICAASVSIFYYYAMGWYRQAPGKERELVATIRSSDGSTYYADSVKGRFTISRDNAKNTVYLQMYSLKPEDTAVYYCAHGYFRYDYWGQGTQVSVSS .
Response given: low polyreactivity

Challenge: How about QVQLVESGGGLVQAGGSLRLSCAASGSTFLYYDMGWYRQAPGKERELVADITWSGSGTYYADSVKGRFTISRDNAKNTVYLQMNSLKPEDTAVYYCAADDTWRGDQYFYSYDYWGQGTQVTVSS ?
Response given: low polyreactivity

Challenge: How about QVQLVESGGGLVQAGGSLRLSCAASGRIFSYYAMGWYRQAPGKERELVARISWRGGSTYYADSVKGRFTISRDNSKNTVYLQMNSLKPEDSAVYYCAATSPYYRTGYDYWGQGTQVTVSS ?
Response given: high polyreactivity

Reference source for all entries: the nanobody polyreactivity screen of Harvey et al. (2022)
